Below, each of the variants is paired with its reported self-cleavage value.
B1: CPEB3 Ribozyme (parent)
chain: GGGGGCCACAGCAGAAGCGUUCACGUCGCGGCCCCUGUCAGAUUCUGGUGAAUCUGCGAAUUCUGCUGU

Variants of: B1
Experiment: self-cleavage, relative activity (ratio to wild type); higher = more cleavage; co-transcriptional
Respond numerically, and do not add a unit to the figure.

Use these answered entries as a reference point.
{"columns": ["mutant-id", "self-cleavage"],
 "data": [
  ["G30A U43C", 0.704],
  ["U43G U64A", 0.506],
  ["G11C C57U", 0.238],
  ["A13U U21G", 0.173],
  ["G14A C18U", 0.179]
]}

Could you share which self-cleavage value was measured for G14U U49G ?
0.867

Likewise for G14U A40U ?
0.179

Now consider C22U G47A .
0.279

One more variant: A42G U67A
0.86
